Please provide measured remaining activity at 1 µM for the entries that follow.
# system_name: human Kv4.3/KChIP2.2 potassium channel (Homo sapiens, UniProt Q9UK17)
# Construct: expressed in transfected cells
# Sequence (Q9UK17 1-655): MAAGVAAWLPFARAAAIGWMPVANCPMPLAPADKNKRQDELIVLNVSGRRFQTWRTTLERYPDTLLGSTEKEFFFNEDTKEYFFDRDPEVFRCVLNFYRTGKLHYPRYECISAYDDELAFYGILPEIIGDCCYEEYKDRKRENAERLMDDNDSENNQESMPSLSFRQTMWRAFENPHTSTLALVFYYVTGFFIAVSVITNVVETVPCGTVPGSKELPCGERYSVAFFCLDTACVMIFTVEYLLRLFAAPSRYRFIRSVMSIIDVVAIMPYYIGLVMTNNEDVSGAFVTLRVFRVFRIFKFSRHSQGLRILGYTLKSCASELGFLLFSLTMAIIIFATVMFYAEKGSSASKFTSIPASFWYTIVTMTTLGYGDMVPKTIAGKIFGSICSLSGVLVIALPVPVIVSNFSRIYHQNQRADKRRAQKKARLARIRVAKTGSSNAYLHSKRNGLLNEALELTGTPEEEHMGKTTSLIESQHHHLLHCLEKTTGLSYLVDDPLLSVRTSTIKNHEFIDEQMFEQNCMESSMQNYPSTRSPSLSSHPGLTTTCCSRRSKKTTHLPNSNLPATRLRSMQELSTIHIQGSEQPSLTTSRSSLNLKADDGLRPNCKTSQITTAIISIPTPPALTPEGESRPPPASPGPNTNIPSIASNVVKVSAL
# method_description: Whole cell patch clamp, CHO-K1 cells stably expressing human Kv4.3/KChIP2.2
# Format: cell-based
# run_conditions: CHO-K1; remaining peak height measured after application of the compound and relative to the blank; read-out: Kv4.3 peak in %
Give bare numbers, in %.

COc1ccccc1Nc1nc(C)c(C(=O)NCc2ccc3c(c2)CCO3)s1 :: 93
COc1ccccc1Nc1nc(C)c(C(=O)N2CCc3ccccc3C2)s1 :: 96
COc1ccccc1Nc1nc(C)c(C(=O)NCc2ccc(C(C)(C)C)cc2)s1 :: 98
COc1ccccc1Nc1nc(C)c(C(=O)NC2Cc3ccccc3C2)s1 :: 97

From here, focus on the item given below.
compound COc1ccccc1Nc1nc(C)c(C(=O)N[C@H](C(=O)O)c2ccccc2)s1 , remaining activity at 1 µM observed: 87

Each recorded value in this set is attributed to patent US20080125432A1.
